Biological target: T1, Histidine-tagged human Siglec-7 (NovoProtein) (human, UniProt Q9Y286 19-357, limits assumed)
T1 construct: Bought protein; also called purified Siglec-7-his tagged protein; not shown: histidine tag
T1 sequence (Q9Y286 19-357 limits assumed): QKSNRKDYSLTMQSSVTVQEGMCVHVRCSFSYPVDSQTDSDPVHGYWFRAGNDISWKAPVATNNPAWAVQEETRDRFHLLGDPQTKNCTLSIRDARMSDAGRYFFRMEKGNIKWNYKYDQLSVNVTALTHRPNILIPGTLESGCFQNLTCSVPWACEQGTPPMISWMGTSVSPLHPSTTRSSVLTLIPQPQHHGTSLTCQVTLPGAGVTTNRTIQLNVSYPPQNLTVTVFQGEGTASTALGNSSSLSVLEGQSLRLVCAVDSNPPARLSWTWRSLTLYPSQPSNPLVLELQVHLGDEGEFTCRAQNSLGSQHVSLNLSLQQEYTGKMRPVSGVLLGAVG
Experiment: SPR (BiaCore T200, 25 C), antibody captured on anti-mouse IgG, Siglec-7-His 100 nM, single-concentration kinetics
Description: SPR data was collected at a rate of 10 Hz at 25′ C on a BiaCore T200 instrument. Data analysis was performed using BiaCore T200 Evaluation Software, version 2.0. HBS-EP+ (100 mM HEPES, 1.5 M NaCl, 30 mM EDTA, 0.5% v/v Surfactant P20, pH 7.4) was used as running buffer and for preparing reagents. […] Affinity constants (KD) were calculated from the ratio kd/kₐ. […]
// reported Kd per item
Quick reminder: number only, in nM, skip the unit.

Requested field: Kd. Item: anti-Siglec-7 antibody 4D7 (antibody, V domains shown, Variable domains assembled from FR and CDR entries) VH: QVQLQQSGAELVKPGASVKLSCKTSGYTFTNYWINWVKQRPGQGLEWIGNIYSGSSRTNYNEKFKSKATLTVDTSSSTAYMQLSSLTSDDSAVYYCAREGLRAMDYWGQGTSVTVSS VL: NZMTQFQKFMSTSVGDRVSLTCKASQKVGTNVAGFQQKPGHSPKAGIYSASTRHRGVQDRFTARGLGSDFILPITTZQLEDLAEYZCHQGNSVQYTFGGGTKLEIK
2.9

Reported Kd for anti-Siglec-7 antibody 1A12 (antibody, V domains shown, also called 1Al2) VH: QVQLQQSGSELRSPGSSVKLSCKDFDSEVFPITYMNWVRQKPGHGFEWIGDILPSIGRTMYGEKFEDKATLDADTVSNTAYLELNSLTSEDSAIYYCARSEGYLLAYWGQGTLVTVSA VL: DVZMTQTPLSLPVSLGDQASISCRSSQSLVHSTGNTYLHWYLQKPGQSPKLLIYKVSNRFSGVPDRFSGSGAGTDFTLKISRVEAEDLGVYFCSQNTHVPYTFGGGTKLEIK : what is it?
0.6

Quick one: Kd for anti-Siglec-7 antibody 10B5 (antibody, V domains shown, that light chain holds several Z and differs in its CDRs from S7-10B5.1 / 10B5L1; also called S7-10B5; mAb S7-10B5) VH: QVHLQQSGPELVKPGASVKISCKASGYAFTNCWMNWVRQRPGKGLDWIGRIFPGNGHTNYSGKFKDKATLTEDKSSSTAYMQLSSLTSEDSAVYFCARDYSDYYFDYWGQGTTLTVSS VL: DVQMTQTTSSLSASLGDRVTISCRASQDINTYLNWYQQKPDGTVKLLIYYTSRLHSGVPSRFSGSGSGTDYSLTISNLEQEDIATYFCQQGNTLPWTFGGGTKLEIK ?
3

Name the reported Kd value associated with the binder anti-Siglec-7 antibody 7E11 (antibody, V domains shown, Variable domains assembled from FR and CDR entries) VH: QVQLKQSGPVLVAPSQSLSITCTVSGFSLSNYGVHWVRQFPGKGLEWLGVIWAGGITNYNSVLMSRLSISKDNSKSQVFLKMNSLQTDDTAMYYCAKQGGTSFSYWGQGTLVTVSA VL: DIQMTQSPASQSASLGESVTITCLASQTIGTWLAWYQQKPGKSPQLLIYAATSLADGVPSRFSGSGSGTKFSFKISSLQAEDFVSYYCQQLYSTPYTFGGGTKLEIK
9.5
